conditions: human, plasma
Description: Observed rate constant in 80% human plasma at 37 degree Centigrade
Exercise: state measured k2 obs for each of the compounds provided.
Answers are plain numbers, in min⁻¹.

Use the examples below as a reference point.
* COC(=O)[C@H](Cc1ccc(OC(C)=O)c(OC(C)=O)c1)NC(=O)N[C@@H](Cc1ccc(OC(C)=O)c(OC(C)=O)c1)C(=O)OC | 0.0025
* COC(=O)[C@H](Cc1ccc(OC(C)=O)c(OC(C)=O)c1)NC(=O)CCCC(=O)N[C@@H](Cc1ccc(OC(C)=O)c(OC(C)=O)c1)C(=O)OC | 0.0045
* COC(=O)[C@H](Cc1ccc(OC(C)=O)c(OC(C)=O)c1)NC(=O)CCCCC(=O)N[C@@H](Cc1ccc(OC(C)=O)c(OC(C)=O)c1)C(=O)OC | 0.01

Provide each entry's k2 obs from the list below.
1. COC(=O)[C@H](Cc1ccc(OC(C)=O)c(OC(C)=O)c1)NC(=O)C(=O)N[C@@H](Cc1ccc(OC(C)=O)c(OC(C)=O)c1)C(=O)OC
2. COC(=O)[C@H](Cc1ccc(OC(C)=O)c(OC(C)=O)c1)NC(=O)CCC(=O)N[C@@H](Cc1ccc(OC(C)=O)c(OC(C)=O)c1)C(=O)OC

Result string:
1: 0.0045; 2: 0.0086

* * *

Exercise: state measured K obs for each of the compounds provided.
conditions: pH 7.4
Description: Observed rate constant at a pH of 7.4
Answers are plain numbers, in h⁻¹.

Use the examples below as a reference point.
• COC(=O)[C@H](Cc1ccc(OC(C)=O)c(OC(C)=O)c1)NC(=O)CCCC(=O)N[C@@H](Cc1ccc(OC(C)=O)c(OC(C)=O)c1)C(=O)OC = 0.05
• COC(=O)[C@H](Cc1ccc(OC(C)=O)c(OC(C)=O)c1)NC(=O)CCC(=O)N[C@@H](Cc1ccc(OC(C)=O)c(OC(C)=O)c1)C(=O)OC = 0.043
• COC(=O)[C@H](Cc1ccc(OC(C)=O)c(OC(C)=O)c1)NC(=O)C(=O)N[C@@H](Cc1ccc(OC(C)=O)c(OC(C)=O)c1)C(=O)OC = 0.049

Provide each entry's K obs from the list below.
1. COC(=O)[C@H](Cc1ccc(OC(C)=O)c(OC(C)=O)c1)NC(=O)CCCCC(=O)N[C@@H](Cc1ccc(OC(C)=O)c(OC(C)=O)c1)C(=O)OC
2. COC(=O)[C@H](Cc1ccc(OC(C)=O)c(OC(C)=O)c1)NC(=O)N[C@@H](Cc1ccc(OC(C)=O)c(OC(C)=O)c1)C(=O)OC

Result string:
1: 0.04; 2: 0.049

* * *

experiment: physchem; conditions: pH 1.3
Description: Half life period at a pH 1.3 was determined
readout.kind: half-life (h)
Give bare numbers, in h.

Use the examples below as a reference point.
* COC(=O)[C@H](Cc1ccc(OC(C)=O)c(OC(C)=O)c1)NC(=O)CCCCC(=O)N[C@@H](Cc1ccc(OC(C)=O)c(OC(C)=O)c1)C(=O)OC | 48.8
* COC(=O)[C@H](Cc1ccc(OC(C)=O)c(OC(C)=O)c1)NC(=O)CCCC(=O)N[C@@H](Cc1ccc(OC(C)=O)c(OC(C)=O)c1)C(=O)OC | 68.1
* COC(=O)[C@H](Cc1ccc(OC(C)=O)c(OC(C)=O)c1)NC(=O)N[C@@H](Cc1ccc(OC(C)=O)c(OC(C)=O)c1)C(=O)OC | 16.5
* COC(=O)[C@H](Cc1ccc(OC(C)=O)c(OC(C)=O)c1)NC(=O)C(=O)N[C@@H](Cc1ccc(OC(C)=O)c(OC(C)=O)c1)C(=O)OC | 20

Given item COC(=O)[C@H](Cc1ccc(OC(C)=O)c(OC(C)=O)c1)NC(=O)CCC(=O)N[C@@H](Cc1ccc(OC(C)=O)c(OC(C)=O)c1)C(=O)OC , the value recorded as its half-life is 55.4

* * *

Exercise: state measured K obs for each of the molecules provided.
species on record: Rattus norvegicus
Give bare numbers, in min⁻¹.

Use the examples below as a reference point.
- COC(=O)[C@H](Cc1ccc(OC(C)=O)c(OC(C)=O)c1)NC(=O)C(=O)N[C@@H](Cc1ccc(OC(C)=O)c(OC(C)=O)c1)C(=O)OC: 0.11
- COC(=O)[C@H](Cc1ccc(OC(C)=O)c(OC(C)=O)c1)NC(=O)CCCC(=O)N[C@@H](Cc1ccc(OC(C)=O)c(OC(C)=O)c1)C(=O)OC: 0.24
- COC(=O)[C@H](Cc1ccc(OC(C)=O)c(OC(C)=O)c1)NC(=O)CCCCC(=O)N[C@@H](Cc1ccc(OC(C)=O)c(OC(C)=O)c1)C(=O)OC: 0.17

Provide each entry's K obs from the list below.
1. COC(=O)[C@H](Cc1ccc(OC(C)=O)c(OC(C)=O)c1)NC(=O)N[C@@H](Cc1ccc(OC(C)=O)c(OC(C)=O)c1)C(=O)OC
2. COC(=O)[C@H](Cc1ccc(OC(C)=O)c(OC(C)=O)c1)NC(=O)CCC(=O)N[C@@H](Cc1ccc(OC(C)=O)c(OC(C)=O)c1)C(=O)OC

Result string:
1: 0.028; 2: 0.34

* * *

conditions: pH 1.3
Description: Observed rate constant at a pH of 1.3
Exercise: state measured K obs for each of the molecules provided.
Give bare numbers, in h⁻¹.

Use the examples below as a reference point.
- COC(=O)[C@H](Cc1ccc(OC(C)=O)c(OC(C)=O)c1)NC(=O)C(=O)N[C@@H](Cc1ccc(OC(C)=O)c(OC(C)=O)c1)C(=O)OC: 0.032
- COC(=O)[C@H](Cc1ccc(OC(C)=O)c(OC(C)=O)c1)NC(=O)N[C@@H](Cc1ccc(OC(C)=O)c(OC(C)=O)c1)C(=O)OC: 0.042
- COC(=O)[C@H](Cc1ccc(OC(C)=O)c(OC(C)=O)c1)NC(=O)CCC(=O)N[C@@H](Cc1ccc(OC(C)=O)c(OC(C)=O)c1)C(=O)OC: 0.13

Provide each entry's K obs from the list below.
1. COC(=O)[C@H](Cc1ccc(OC(C)=O)c(OC(C)=O)c1)NC(=O)CCCC(=O)N[C@@H](Cc1ccc(OC(C)=O)c(OC(C)=O)c1)C(=O)OC
2. COC(=O)[C@H](Cc1ccc(OC(C)=O)c(OC(C)=O)c1)NC(=O)CCCCC(=O)N[C@@H](Cc1ccc(OC(C)=O)c(OC(C)=O)c1)C(=O)OC

Result string:
0.01
0.014

* * *

details: human, plasma
Description: Observed rate constant in 80% human plasma at 37 degree Centigrade
readout.kind: log10 k1 obs (log10 of the value in min⁻¹)
# values: log10(k1 obs), units min⁻¹

Use the examples below as a reference point.
* COC(=O)[C@H](Cc1ccc(OC(C)=O)c(OC(C)=O)c1)NC(=O)CCC(=O)N[C@@H](Cc1ccc(OC(C)=O)c(OC(C)=O)c1)C(=O)OC | -1.28
* COC(=O)[C@H](Cc1ccc(OC(C)=O)c(OC(C)=O)c1)NC(=O)N[C@@H](Cc1ccc(OC(C)=O)c(OC(C)=O)c1)C(=O)OC | -2.17
* COC(=O)[C@H](Cc1ccc(OC(C)=O)c(OC(C)=O)c1)NC(=O)CCCCC(=O)N[C@@H](Cc1ccc(OC(C)=O)c(OC(C)=O)c1)C(=O)OC | -1.09
* COC(=O)[C@H](Cc1ccc(OC(C)=O)c(OC(C)=O)c1)NC(=O)C(=O)N[C@@H](Cc1ccc(OC(C)=O)c(OC(C)=O)c1)C(=O)OC | -2.08

Given item COC(=O)[C@H](Cc1ccc(OC(C)=O)c(OC(C)=O)c1)NC(=O)CCCC(=O)N[C@@H](Cc1ccc(OC(C)=O)c(OC(C)=O)c1)C(=O)OC , the value recorded as its log10 k1 obs is -1.96

* * *

test: in vitro; settings: human, 80% human plasma, T1/2
Description: Half life period in 80% human plasma at 37 degree Centigrade
readout.kind: half-life
Answer with the value and then the unit.

Given item COC(=O)[C@H](Cc1ccc(OC(C)=O)c(OC(C)=O)c1)NC(=O)C(=O)N[C@@H](Cc1ccc(OC(C)=O)c(OC(C)=O)c1)C(=O)OC , the value recorded as its half-life is 1.38 h

* * *

assay: physchem; conditions: dog, in vivo, pH 7.4
Description: Half life period at a pH 7.4 was determined
readout.kind: half-life (h)
Give bare numbers, in h.

• COC(=O)[C@H](Cc1ccc(OC(C)=O)c(OC(C)=O)c1)NC(=O)CCCCC(=O)N[C@@H](Cc1ccc(OC(C)=O)c(OC(C)=O)c1)C(=O)OC = 17.3

Provide each entry's half-life from the list below.
1. COC(=O)[C@H](Cc1ccc(OC(C)=O)c(OC(C)=O)c1)NC(=O)CCCC(=O)N[C@@H](Cc1ccc(OC(C)=O)c(OC(C)=O)c1)C(=O)OC
2. COC(=O)[C@H](Cc1ccc(OC(C)=O)c(OC(C)=O)c1)NC(=O)CCC(=O)N[C@@H](Cc1ccc(OC(C)=O)c(OC(C)=O)c1)C(=O)OC
3. COC(=O)[C@H](Cc1ccc(OC(C)=O)c(OC(C)=O)c1)NC(=O)N[C@@H](Cc1ccc(OC(C)=O)c(OC(C)=O)c1)C(=O)OC
4. COC(=O)[C@H](Cc1ccc(OC(C)=O)c(OC(C)=O)c1)NC(=O)C(=O)N[C@@H](Cc1ccc(OC(C)=O)c(OC(C)=O)c1)C(=O)OC

Result string:
13.9
16.2
14.2
14.2

The values you see were collected from ChEMBL document CHEMBL1134031.
